Recorded values, source PubChem BioAssay AID1963841.

Assignment: determine reported viability, T/C for the given compounds.
- Tested on: 439559-082-T-J2-PDC spheroid viability
- protocol_description: Anticancer human tumor 439559-082-T-J2-PDC patient-derived colon adenocarcinoma cell line growth inhibition [POLQ]
- measurement_setup: second compound 0.0316 µM; first compound 0.00316 µM; stronger effect = lower value; spheroids with HUVEC and MSC
Mention the unit after the number when you answer.

Query string: For the compound shown here, C=CCn1c(=O)c2cnc(Nc3ccc(N4CCN(C)CC4)cc3)nc2n1-c1cccc(C(C)(C)O)n1 + Nc1ccc(C#CCN(C(=O)Cc2ncc(C(F)(F)F)cc2C(F)(F)F)c2ccc(F)cc2)nn1 , give the reported viability, T/C.
Result string: 111%

Query string: Another: COc1cccc(OCCCN)c1-c1cc(Nc2cnc(C#N)cn2)n[nH]1 + Cc1cccc(N(C)C(=O)C2C(O)CCN2c2nc(C)cc(C(F)(F)F)c2C#N)c1
Result string: 99.3%

Query string: Now give it for Cn1ncnc1[C@H]1c2n[nH]c(=O)c3cc(F)cc(c23)N[C@@H]1c1ccc(F)cc1 + Cc1cccc(N(C)C(=O)C2C(O)CCN2c2nc(C)cc(C(F)(F)F)c2C#N)c1 too.
Result string: 97.5%

###

- System: 439559-082-T-J2-PDC spheroid viability
- protocol_description: Anticancer human tumor 439559-082-T-J2-PDC cell line growth inhibition [POLQ];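 further: spheroids exposed to compounds for seven days before readout; 100% = DMSO vehicle control viability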
- measurement_setup: second compound 0.1 µM; first compound 0.316 µM; stronger effect = lower value; spheroids with HUVEC and MSC
For each entry below, report its viability, T/C value.
Answer in %, number only, no unit symbol.

Query string: Notebook: pull reported viability, T/C for 439559-082-T-J2-PDC spheroid viability, entry O=C(c1cc(Cc2n[nH]c(=O)c3ccccc23)ccc1F)N1CCN(C(=O)C2CC2)CC1 + Cc1cccc(N(C)C(=O)C2C(O)CCN2c2nc(C)cc(C(F)(F)F)c2C#N)c1
Result string: 101

Query string: What about this compound? CCc1cc2c(N3CCc4c(cc(Cn5ccnc5)cc4-c4cn(C)nc4C(F)(F)F)C3=O)ccnc2c(OC)n1 + Nc1ccc(C#CCN(C(=O)Cc2ncc(C(F)(F)F)cc2C(F)(F)F)c2ccc(F)cc2)nn1
Result string: 86

Query string: And the next one, CCc1cc2c(N3CCc4c(cc(Cn5ccnc5)cc4-c4cn(C)nc4C(F)(F)F)C3=O)cc(C)nc2c(OC)n1 + Cc1cccc(N(C)C(=O)C2C(O)CCN2c2nc(C)cc(C(F)(F)F)c2C#N)c1 ?
Result string: 90.2

Query string: Subsequent entry: COc1ccc([C@@H](O)c2cc(-c3ncnc4cc(N5CCOCC5)ccc34)c(F)cc2Cl)nn1 + Nc1ccc(C#CCN(C(=O)Cc2ncc(C(F)(F)F)cc2C(F)(F)F)c2ccc(F)cc2)nn1
Result string: 92.7

Query string: Let us now turn to CNCc1ccc(-c2[nH]c3cc(F)cc4c3c2CCNC4=O)cc1 + Nc1ccc(C#CCN(C(=O)Cc2ncc(C(F)(F)F)cc2C(F)(F)F)c2ccc(F)cc2)nn1
Result string: 97.5

###

- Test system: 439559-082-T-J2-PDC spheroid viability
- protocol_description: Anticancer human tumor 439559-082-T-J2-PDC cell line growth inhibition [POLQ];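 further: spheroids exposed to compounds for seven days before readout; 100% = DMSO vehicle control viability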
- measurement_setup: second compound 10 µM; first compound 0.1 µM; stronger effect = lower value; spheroids with HUVEC and MSC
readout: viability, T/C (%)
Just the number in %, nothing appended.

Query string: Requested field: viability, T/C. Item: COc1ccc([C@@H](O)c2cc(-c3ncnc4cc(N5CCOCC5)ccc34)c(F)cc2Cl)nn1 + COC1C(OC(N)=O)C(O)C(Oc2ccc3c(O)c(NC(=O)c4ccc(O)c(CC=C(C)C)c4)c(=O)oc3c2C)OC1(C)C
Result string: 99.9

Query string: Further, for COc1cc(C2c3cc4c(cc3C(OC3OC5COC(C)OC5C(O)C3O)C3COC(=O)C23)OCO4)cc(OC)c1O (stereo not given) + COC1C(OC(N)=O)C(O)C(Oc2ccc3c(O)c(NC(=O)c4ccc(O)c(CC=C(C)C)c4)c(=O)oc3c2C)OC1(C)C ?
Result string: 103

Query string: # iterate: Cn1ncnc1[C@H]1c2n[nH]c(=O)c3cc(F)cc(c23)N[C@@H]1c1ccc(F)cc1 + Nc1ccc(C#CCN(C(=O)Cc2ncc(C(F)(F)F)cc2C(F)(F)F)c2ccc(F)cc2)nn1
Result string: 112

Query string: Follow-up item: O=C(Nc1ccc(O)c(NS(=O)(=O)c2ccc(F)cc2)c1)c1ccc(-c2ccccc2)cc1 + Cc1cccc(N(C)C(=O)C2C(O)CCN2c2nc(C)cc(C(F)(F)F)c2C#N)c1
Result string: 84.6

Query string: Also, CC[C@@]1(O)C(=O)OCc2c1cc1n(c2=O)Cc2cc3c(CN(C)C)c(O)ccc3nc2-1 + COC1C(OC(N)=O)C(O)C(Oc2ccc3c(O)c(NC(=O)c4ccc(O)c(CC=C(C)C)c4)c(=O)oc3c2C)OC1(C)C please.
Result string: 77.6

Query string: Cool, now COc1cccc2c1C(=O)c1c(O)c3c(c(O)c1C2=O)CC(O)(C(=O)CO)CC3OC1CC(N)C(O)C(C)O1 (stereo not given) + Cc1cccc(N(C)C(=O)C2C(O)CCN2c2nc(C)cc(C(F)(F)F)c2C#N)c1
Result string: 81.4

Query string: Now try C#Cc1c(F)ccc2cc(O)cc(-c3ncc4c(N5CC6CCC(C5)N6)nc(OCC56CCCN5CC(F)C6)nc4c3F)c12 (stereo not given) + COC1C(OC(N)=O)C(O)C(Oc2ccc3c(O)c(NC(=O)c4ccc(O)c(CC=C(C)C)c4)c(=O)oc3c2C)OC1(C)C .
Result string: 92.1

Query string: Query CC[C@@]1(O)C(=O)OCc2c1cc1n(c2=O)Cc2cc3c(CN(C)C)c(O)ccc3nc2-1 + Cc1cccc(N(C)C(=O)C2C(O)CCN2c2nc(C)cc(C(F)(F)F)c2C#N)c1 next
Result string: 75

Query string: Same again, this time with Nc1ccn(C2OC(CO)C(O)C2(F)F)c(=O)n1 (stereo not given) + Nc1ccc(C#CCN(C(=O)Cc2ncc(C(F)(F)F)cc2C(F)(F)F)c2ccc(F)cc2)nn1
Result string: 80

Query string: Moving on to the next compound: CCCS(=O)(=O)Nc1ccc(F)c(C(=O)c2c[nH]c3ncc(-c4ccc(Cl)cc4)cc23)c1F + COC1C(OC(N)=O)C(O)C(Oc2ccc3c(O)c(NC(=O)c4ccc(O)c(CC=C(C)C)c4)c(=O)oc3c2C)OC1(C)C
Result string: 95.2

###

- Test system: 439559-082-T-J2-PDC spheroid viability
- protocol_description: Anticancer human tumor 439559-082-T-J2-PDC cell line growth inhibition [POLQ];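 further: spheroids exposed to compounds for seven days before readout; 100% = DMSO vehicle control viability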
- measurement_setup: second compound 0.1 µM; first compound 0.0316 µM; stronger effect = lower value; spheroids with HUVEC and MSC
Kindly state viability, T/C for each of the entries shown.
State just the number; it will be interpreted in %.

Query string: For Nc1ccn(C2OC(CO)C(O)C2(F)F)c(=O)n1 (configuration not stated) + COC1C(OC(N)=O)C(O)C(Oc2ccc3c(O)c(NC(=O)c4ccc(O)c(CC=C(C)C)c4)c(=O)oc3c2C)OC1(C)C , what is its reported viability, T/C?
Result string: 82.2

Query string: Also COc1cc2cc(C(=O)CCC(=O)O)sc2cc1OC + Cc1cccc(N(C)C(=O)C2C(O)CCN2c2nc(C)cc(C(F)(F)F)c2C#N)c1 , if possible.
Result string: 107

Query string: Note, next up: O=C(Nc1ccc(O)c(NS(=O)(=O)c2ccc(F)cc2)c1)c1ccc(-c2ccccc2)cc1 + Cc1cccc(N(C)C(=O)C2C(O)CCN2c2nc(C)cc(C(F)(F)F)c2C#N)c1
Result string: 101

Query string: Try this compound next: CCc1c2c(nc3ccc(O)cc13)-c1cc3c(c(=O)n1C2)COC(=O)[C@]3(O)CC + Nc1ccc(C#CCN(C(=O)Cc2ncc(C(F)(F)F)cc2C(F)(F)F)c2ccc(F)cc2)nn1
Result string: 71

Query string: Please give the result for COc1cc2cc(C(=O)CCC(=O)O)sc2cc1OC + Nc1ccc(C#CCN(C(=O)Cc2ncc(C(F)(F)F)cc2C(F)(F)F)c2ccc(F)cc2)nn1 too.
Result string: 95

Query string: Also, CC1COCCN1c1cc(C2(O)CC3CCC(C2)O3)c2cnn(-c3ccn[nH]3)c2n1 (configuration not stated) + COC1C(OC(N)=O)C(O)C(Oc2ccc3c(O)c(NC(=O)c4ccc(O)c(CC=C(C)C)c4)c(=O)oc3c2C)OC1(C)C please.
Result string: 95.1

Query string: And for C#Cc1c(F)ccc2cc(O)cc(-c3ncc4c(N5CC6CCC(C5)N6)nc(OCC56CCCN5CC(F)C6)nc4c3F)c12 (configuration not stated) + Nc1ccc(C#CCN(C(=O)Cc2ncc(C(F)(F)F)cc2C(F)(F)F)c2ccc(F)cc2)nn1 ?
Result string: 103

Query string: Similarly, CC1COCCN1c1cc(C2(S(C)(=N)=O)CC2)nc(-c2ccnc3[nH]ccc23)n1 (configuration not stated) + Nc1ccc(C#CCN(C(=O)Cc2ncc(C(F)(F)F)cc2C(F)(F)F)c2ccc(F)cc2)nn1 ?
Result string: 99.4

Query string: O=c1[nH]cc(F)c(=O)[nH]1 + Cc1cccc(N(C)C(=O)C2C(O)CCN2c2nc(C)cc(C(F)(F)F)c2C#N)c1 ?
Result string: 106

Query string: Same thing, different compound: CC1COCCN1c1cc(-c2ccnn2C)c2ccnc(-c3ccn[nH]3)c2n1 (configuration not stated) + Cc1cccc(N(C)C(=O)C2C(O)CCN2c2nc(C)cc(C(F)(F)F)c2C#N)c1
Result string: 95.5

Query string: // next record C=CC(=O)N1CCN(c2nc(=O)n(-c3c(C)ccnc3C(C)C)c3nc(-c4c(O)cccc4F)c(F)cc23)C(C)C1 (configuration not stated) + Cc1cccc(N(C)C(=O)C2C(O)CCN2c2nc(C)cc(C(F)(F)F)c2C#N)c1
Result string: 101

Query string: Then this compound: CNCc1ccc(-c2[nH]c3cc(F)cc4c3c2CCNC4=O)cc1 + Cc1cccc(N(C)C(=O)C2C(O)CCN2c2nc(C)cc(C(F)(F)F)c2C#N)c1
Result string: 103
